- ASSAY SYSTEM: CDC42BPB (human)
- ASSAY: radiometric filter-binding kinase assay, Kinase HotSpot
- EXPERIMENTAL CONTEXT: compound 0.5 µM; ATP 10 µM
Provide the reported residual activity of each item.
Give bare numbers, in %.

CC(C)c1nn(-c2c(Cl)cccc2Cl)c2nc(Cc3ccc(OCCO)cc3)nc(O)c12 = 105
Oc1ccc(Nc2nc(-c3ccc(Cl)cc3)cs2)cc1 = 108
O=C1Nc2ccccc2/C1=C1\Nc2ccccc2\C1=N/O = 99.5

List reported residual activity for each of these compounds:
1. CN(C)C[C@H]1CCn2c(c(C3=C(c4cn(C)c5ccccc45)C(=O)NC3=O)c3ccccc32)C1
2. O=C(CCCc1ccc(-c2ccccc2F)cc1)Nc1ccc(O)cc1

## Result
1: 103; 2: 109

List reported residual activity for each of these compounds:
1. COc1ccc(OC)c2c(=S)c3ccccc3[nH]c12
2. CC(C)[C@H](CO)Nc1nc(Nc2cc(N)cc(Cl)c2)c2ncn(C(C)C)c2n1
3. CN([C@@H](Cc1ccc(OS(=O)(=O)c2cccc3cnccc23)cc1)C(=O)N1CCN(c2ccccc2)CC1)S(=O)(=O)c1cccc2cnccc12
4. CCN(CC)CCCCN1c2ccccc2Oc2ccc(Cl)cc21
5. O=C1Nc2ccccc2/C1=C1/Nc2ccccc2/C1=N\OCCC(O)CO (configuration not stated)
6. Cn1sc(=O)n(Cc2ccccc2)c1=O
7. CC(=O)O/N=C1\C(=C2\C(=O)Nc3cc(Br)ccc32)Nc2ccccc21
8. O=C(Nc1cccc(Nc2cc(Nc3cccc(C(F)(F)F)c3)ncn2)c1)C1CC1

## Result
[106, 98.4, 103, 99.7, 96.6, 96.4, 94.7, 97.4]

List reported residual activity for each of these compounds:
1. Nc1nccc(-c2c(-c3ccc(F)cc3)ncn2C2CCNCC2)n1
2. Cn1nc2c3c(cccc31)C(=O)c1ccccc1-2
3. Cn1cnc2cc3c(Nc4cccc(Br)c4)ncnc3cc21
4. O=C(O)/C=C/c1cc(Br)c(Br)c(Br)c1Br
5. COc1cc2ncnc(N3CCN(C(=O)Nc4ccc(Oc5ccccc5)cc4)CC3)c2cc1OC
6. Cc1nc2cc3nc(-c4cccs4)cnc3cc2n1C
7. O=C1NC(=O)C(c2c[nH]c3ccccc23)=C1c1c[nH]c2ccccc12

## Result
[101, 98, 104, 97.4, 98.3, 100, 99]

List reported residual activity for each of these compounds:
1. CCn1cnc2c(Nc3cccc(Cl)c3)nc(N[C@@H]3CCCC[C@@H]3N)nc21
2. COc1cc2ncc(-c3ccccc3)nc2cc1OC

## Result
1: 97.7; 2: 93.3

###

Provide the reported residual activity of each item.
- ASSAY SYSTEM: UniProt:Q96SB4
- Sequence (Q96SB4 whole entry, looked up): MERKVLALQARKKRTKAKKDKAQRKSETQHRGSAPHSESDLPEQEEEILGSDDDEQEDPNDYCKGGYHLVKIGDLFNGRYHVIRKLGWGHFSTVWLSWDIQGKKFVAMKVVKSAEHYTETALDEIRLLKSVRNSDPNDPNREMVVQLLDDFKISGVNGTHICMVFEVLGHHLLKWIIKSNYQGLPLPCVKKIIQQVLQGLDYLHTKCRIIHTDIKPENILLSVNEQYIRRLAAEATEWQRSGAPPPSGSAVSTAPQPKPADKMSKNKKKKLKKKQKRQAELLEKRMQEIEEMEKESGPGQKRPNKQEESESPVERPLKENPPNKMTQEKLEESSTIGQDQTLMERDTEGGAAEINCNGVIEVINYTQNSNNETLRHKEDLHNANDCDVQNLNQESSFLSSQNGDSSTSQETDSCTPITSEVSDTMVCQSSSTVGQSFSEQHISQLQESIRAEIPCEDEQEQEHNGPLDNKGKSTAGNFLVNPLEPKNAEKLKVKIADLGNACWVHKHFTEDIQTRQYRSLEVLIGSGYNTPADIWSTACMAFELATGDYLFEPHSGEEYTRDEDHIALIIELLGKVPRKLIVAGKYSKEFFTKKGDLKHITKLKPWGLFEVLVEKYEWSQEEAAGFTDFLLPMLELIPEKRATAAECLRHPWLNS
- ASSAY: radiometric filter-binding kinase assay, Kinase HotSpot
- EXPERIMENTAL CONTEXT: compound 0.5 µM; ATP 10 µM
Give bare numbers, in %.

# annotated cases, reported residual activity shown
CCn1cnc2c(Nc3cccc(Cl)c3)nc(N[C@@H]3CCCC[C@@H]3N)nc21 = 94.2
O=C(Nc1cccc(Nc2cc(Nc3cccc(C(F)(F)F)c3)ncn2)c1)C1CC1 = 86.4
Nc1nccc(-c2c(-c3ccc(F)cc3)ncn2C2CCNCC2)n1 = 103

List reported residual activity for each of these molecules:
1. Cn1cnc2cc3c(Nc4cccc(Br)c4)ncnc3cc21
2. CC(C)c1nn(-c2c(Cl)cccc2Cl)c2nc(Cc3ccc(OCCO)cc3)nc(O)c12

## Result
96.1
97.4

###

- ASSAY SYSTEM: UniProtKB Q8TDC3
- Sequence (Q8TDC3 whole entry, looked up): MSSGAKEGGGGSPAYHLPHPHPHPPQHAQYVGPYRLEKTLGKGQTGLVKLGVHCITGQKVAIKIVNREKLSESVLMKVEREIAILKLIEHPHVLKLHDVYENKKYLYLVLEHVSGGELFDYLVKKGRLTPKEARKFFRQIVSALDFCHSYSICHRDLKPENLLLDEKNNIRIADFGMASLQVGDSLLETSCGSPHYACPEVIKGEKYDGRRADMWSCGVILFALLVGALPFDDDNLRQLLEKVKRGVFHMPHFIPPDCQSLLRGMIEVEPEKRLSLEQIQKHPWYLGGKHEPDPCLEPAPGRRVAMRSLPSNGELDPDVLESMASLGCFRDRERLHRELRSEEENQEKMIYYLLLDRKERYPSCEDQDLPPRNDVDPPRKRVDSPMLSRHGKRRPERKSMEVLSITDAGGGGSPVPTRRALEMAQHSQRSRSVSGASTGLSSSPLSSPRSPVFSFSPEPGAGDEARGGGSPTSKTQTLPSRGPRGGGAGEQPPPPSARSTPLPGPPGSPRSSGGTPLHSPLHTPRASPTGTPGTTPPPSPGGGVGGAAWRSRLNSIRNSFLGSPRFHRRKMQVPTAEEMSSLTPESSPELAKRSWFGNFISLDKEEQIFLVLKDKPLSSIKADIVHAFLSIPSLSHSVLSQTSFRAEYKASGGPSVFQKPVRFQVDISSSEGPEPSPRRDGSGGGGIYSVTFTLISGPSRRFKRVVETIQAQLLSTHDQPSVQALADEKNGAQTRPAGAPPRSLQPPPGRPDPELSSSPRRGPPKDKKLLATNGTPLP
- ASSAY: radiometric filter-binding kinase assay, Kinase HotSpot
- EXPERIMENTAL CONTEXT: compound 0.5 µM; ATP 10 µM
EXPERIMENTAL READOUT: residual activity (%)
One number for each entry, in %.

Cn1cnc2cc3c(Nc4cccc(Br)c4)ncnc3cc21 = 81.6
CCn1cnc2c(Nc3cccc(Cl)c3)nc(N[C@@H]3CCCC[C@@H]3N)nc21 = 92.4
O=C(CCCc1ccc(-c2ccccc2F)cc1)Nc1ccc(O)cc1 = 103

List reported residual activity for each of these molecules:
1. CC(=O)O/N=C1\C(=C2\C(=O)Nc3cc(Br)ccc32)Nc2ccccc21
2. Cc1nc2cc3nc(-c4cccs4)cnc3cc2n1C
3. Cn1nc2c3c(cccc31)C(=O)c1ccccc1-2
4. CCN(CC)CCCCN1c2ccccc2Oc2ccc(Cl)cc21

## Result
[43.5, 98.7, 92.5, 98.3]

###

- ASSAY SYSTEM: PRKCH (human) (UniProt P24723)
- Sequence (P24723 whole entry, looked up): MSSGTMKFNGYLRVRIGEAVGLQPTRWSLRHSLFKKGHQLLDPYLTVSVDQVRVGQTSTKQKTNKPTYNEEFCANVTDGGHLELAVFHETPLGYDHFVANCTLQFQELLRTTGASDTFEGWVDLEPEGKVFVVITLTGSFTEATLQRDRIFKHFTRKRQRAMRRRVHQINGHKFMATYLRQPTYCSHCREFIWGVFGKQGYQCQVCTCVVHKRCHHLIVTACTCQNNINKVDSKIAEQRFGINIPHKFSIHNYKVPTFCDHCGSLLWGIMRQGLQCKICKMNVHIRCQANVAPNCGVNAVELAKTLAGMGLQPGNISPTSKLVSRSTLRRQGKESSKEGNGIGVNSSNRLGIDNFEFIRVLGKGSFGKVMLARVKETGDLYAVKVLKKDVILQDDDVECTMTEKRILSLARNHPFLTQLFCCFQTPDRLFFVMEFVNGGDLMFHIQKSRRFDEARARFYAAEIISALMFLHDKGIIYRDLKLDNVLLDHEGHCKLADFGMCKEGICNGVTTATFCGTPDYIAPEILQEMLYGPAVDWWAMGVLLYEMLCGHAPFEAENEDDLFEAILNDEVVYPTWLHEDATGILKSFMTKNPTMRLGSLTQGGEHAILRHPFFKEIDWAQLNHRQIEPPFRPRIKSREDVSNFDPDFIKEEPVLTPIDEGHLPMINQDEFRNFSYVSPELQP
- ASSAY: radiometric filter-binding kinase assay, Kinase HotSpot
- EXPERIMENTAL CONTEXT: compound 0.5 µM; ATP 10 µM
EXPERIMENTAL READOUT: residual activity (%)
Numbers only, in %.

O=C1Nc2ccccc2/C1=C1\Nc2ccccc2\C1=N/O = 74.4
O=C1NC(=O)C(c2cn(CCCO)c3ncccc23)=C1c1cnccn1 = 81.6
Nc1nnc2[nH]c3ccccc3nc1-2 = 87.9

List reported residual activity for each of these molecules:
1. CN(C)C[C@H]1CCn2c(c(C3=C(c4cn(C)c5ccccc45)C(=O)NC3=O)c3ccccc32)C1
2. Nc1nccc(-c2c(-c3ccc(F)cc3)ncn2C2CCNCC2)n1

## Result
7.84
91.9

###

Provide the reported residual activity of each item.
- ASSAY SYSTEM: PRKG2 (human)
- ASSAY: radiometric filter-binding kinase assay, Kinase HotSpot
- EXPERIMENTAL CONTEXT: compound 0.5 µM; ATP 10 µM
One number for each entry, in %.

# annotated cases, reported residual activity shown
O=C1Nc2ccccc2/C1=C1\Nc2ccccc2\C1=N/O = 67.3
CN([C@@H](Cc1ccc(OS(=O)(=O)c2cccc3cnccc23)cc1)C(=O)N1CCN(c2ccccc2)CC1)S(=O)(=O)c1cccc2cnccc12 = 99.5
O=C1Cc2c([nH]c3ccc(Br)cc23)-c2ccccc2N1 = 101
Nc1nnc2[nH]c3ccccc3nc1-2 = 66.7

List reported residual activity for each of these molecules:
1. O=C1Nc2ccccc2/C1=C1/Nc2ccccc2/C1=N\OCCC(O)CO (stereo not given)
2. O=C(Nc1cccc(Nc2cc(Nc3cccc(C(F)(F)F)c3)ncn2)c1)C1CC1
3. O=C1NC(=O)C(c2c[nH]c3ccccc23)=C1c1c[nH]c2ccccc12
4. Cn1cnc2cc3c(Nc4cccc(Br)c4)ncnc3cc21
5. Nc1nccc(-c2c(-c3ccc(F)cc3)ncn2C2CCNCC2)n1
6. O=C1NC(=O)C(c2cn(CCCO)c3ncccc23)=C1c1cnccn1

## Result
28.1
103
52.6
63.6
97.2
118

###

- ASSAY SYSTEM: MELK (human)
- ASSAY: radiometric filter-binding kinase assay, Kinase HotSpot
- EXPERIMENTAL CONTEXT: compound 0.5 µM; ATP 10 µM
Provide the reported residual activity of each item.
One number for each entry, in %.

# annotated cases, reported residual activity shown
O=C1NC(=O)C(c2cn(CCCO)c3ncccc23)=C1c1cnccn1 = 101
CCN(CC)CCCCN1c2ccccc2Oc2ccc(Cl)cc21 = 95.3
O=C1Nc2ccccc2/C1=C1/Nc2ccccc2/C1=N\OCCC(O)CO (stereo unspecified) = 13.1

List reported residual activity for each of these compounds:
1. O=C(CCCc1ccc(-c2ccccc2F)cc1)Nc1ccc(O)cc1
2. Cn1sc(=O)n(Cc2ccccc2)c1=O
3. Nc1nccc(-c2c(-c3ccc(F)cc3)ncn2C2CCNCC2)n1
4. O=C1Nc2ccccc2/C1=C1\Nc2ccccc2\C1=N/O
5. CCn1cnc2c(Nc3cccc(Cl)c3)nc(N[C@@H]3CCCC[C@@H]3N)nc21

## Result
1. 95.5
2. 99.3
3. 100
4. 33.3
5. 77

###

Provide the reported residual activity of each item.
- ASSAY SYSTEM: PRKCI (human) (UniProt P41743)
- Sequence (P41743 whole entry, looked up): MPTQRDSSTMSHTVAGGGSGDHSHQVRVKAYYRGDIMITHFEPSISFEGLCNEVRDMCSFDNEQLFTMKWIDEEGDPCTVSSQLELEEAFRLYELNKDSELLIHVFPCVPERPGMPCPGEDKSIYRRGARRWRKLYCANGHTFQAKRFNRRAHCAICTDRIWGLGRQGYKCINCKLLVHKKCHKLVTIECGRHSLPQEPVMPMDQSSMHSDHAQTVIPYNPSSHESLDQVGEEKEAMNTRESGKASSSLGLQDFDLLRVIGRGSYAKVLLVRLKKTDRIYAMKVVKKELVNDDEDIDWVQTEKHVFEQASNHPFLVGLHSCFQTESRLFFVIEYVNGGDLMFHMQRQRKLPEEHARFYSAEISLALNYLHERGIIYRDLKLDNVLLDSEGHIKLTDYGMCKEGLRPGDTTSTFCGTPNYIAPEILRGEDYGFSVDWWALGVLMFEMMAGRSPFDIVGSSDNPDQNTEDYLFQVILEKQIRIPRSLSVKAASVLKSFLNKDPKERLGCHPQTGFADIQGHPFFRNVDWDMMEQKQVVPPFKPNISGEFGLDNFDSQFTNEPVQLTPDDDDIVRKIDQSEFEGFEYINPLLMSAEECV
- ASSAY: radiometric filter-binding kinase assay, Kinase HotSpot
- EXPERIMENTAL CONTEXT: compound 0.5 µM; ATP 10 µM
One number for each entry, in %.

COc1ccc(OC)c2c(=S)c3ccccc3[nH]c12 = 99.3

List reported residual activity for each of these compounds:
1. COc1cc2ncc(-c3ccccc3)nc2cc1OC
2. CN([C@@H](Cc1ccc(OS(=O)(=O)c2cccc3cnccc23)cc1)C(=O)N1CCN(c2ccccc2)CC1)S(=O)(=O)c1cccc2cnccc12
3. Oc1ccc(Nc2nc(-c3ccc(Cl)cc3)cs2)cc1

## Result
[82.1, 93.8, 99.5]

###

- ASSAY SYSTEM: GRK5 (human)
- ASSAY: radiometric filter-binding kinase assay, Kinase HotSpot
- EXPERIMENTAL CONTEXT: compound 0.5 µM; ATP 10 µM
EXPERIMENTAL READOUT: residual activity (%)
Answers are plain numbers, in %.

List reported residual activity for each of these compounds:
1. COc1ccc(CNC(=O)Nc2ncc([N+](=O)[O-])s2)cc1
2. O=C1Nc2ccccc2/C1=C1\Nc2ccccc2\C1=N/O
3. CC(=O)O/N=C1\C(=C2\C(=O)Nc3cc(Br)ccc32)Nc2ccccc21
4. O=C1NC(=O)/C(=C\c2ccc3nccnc3c2)S1
5. CN(C)C[C@H]1CCn2c(c(C3=C(c4cn(C)c5ccccc45)C(=O)NC3=O)c3ccccc32)C1
6. COc1cc2ncnc(N3CCN(C(=O)Nc4ccc(Oc5ccccc5)cc4)CC3)c2cc1OC
7. CCN(CC)CCCCN1c2ccccc2Oc2ccc(Cl)cc21

## Result
1. 104
2. 103
3. 104
4. 105
5. 56.2
6. 82.2
7. 103

List reported residual activity for each of these compounds:
1. Cn1sc(=O)n(Cc2ccccc2)c1=O
2. O=C(CCCc1ccc(-c2ccccc2F)cc1)Nc1ccc(O)cc1
3. COc1cc2ncc(-c3ccccc3)nc2cc1OC
4. CCn1cnc2c(Nc3cccc(Cl)c3)nc(N[C@@H]3CCCC[C@@H]3N)nc21
5. O=C(O)/C=C/c1cc(Br)c(Br)c(Br)c1Br
6. O=C1Nc2ccccc2/C1=C1/Nc2ccccc2/C1=N\OCCC(O)CO (stereo unspecified)
7. Cn1cnc2cc3c(Nc4cccc(Br)c4)ncnc3cc21

## Result
[93.6, 98.4, 106, 106, 104, 84.6, 109]

List reported residual activity for each of these compounds:
1. Nc1nccc(-c2c(-c3ccc(F)cc3)ncn2C2CCNCC2)n1
2. O=C1NC(=O)C(c2c[nH]c3ccccc23)=C1c1c[nH]c2ccccc12

## Result
103
98.1

The reported numbers originate from the kinase profiling compilation of Christmann-Franck et al. (2016).
